Assay: basal S. cerevisiae growth modulation, no modifier, primary screen, OD600, strain BY4716, 24 h, basal condition (AID 1173)
Details: OD600, 24 h, called active from +8 up or from −8 down
Activity calls are given as the source filed them.
Hi! Could you answer with just one of these? YES for active, NO for inactive

Consider the worked cases shown below.
• C[N+](C)(C)CCCCCCNC(=O)[C@H]1C[C@H]2C(=O)N3CCC[C@H]3C(=O)N2[C@H]1c1ccc(O)cc1 = NO
• CC(C)C(O)C1C=CC2C(=O)N(c3ccccc3)C(=O)C2N1Nc1ccc(C#N)cc1 (stereo unspecified) = NO
• CC(C)C(=C=CC[C@H](O)c1cccc(OCCO)c1)C[C@H](O)COCc1ccccc1 = NO

Called result for CC(=CC1CCCCC1)[C@@H](NC(=O)c1ccc(C(F)(F)F)cc1)c1ccc(-c2ccccc2)cc1
NO

Follow-up item: COCCOC(=O)N1C(=O)[C@@]2(c3cc(C#CCC(C(=O)OC)C(=O)OC)ccc31)[C@H](c1ccccc1OCCO)N1[C@H](c3ccccc3)[C@H](c3ccccc3)OC(=O)[C@H]1[C@@H]2C(N)=O
NO

Let us now turn to CCOC(=O)C[C@H]1[C@H](OC(=O)c2ccc(-c3ccccc3)cc2)[C@@H](NC(=O)c2ccc3ccccc3c2)c2cc(OCCCO)ccc2N1C(=O)Cc1ccc(OC)cc1
NO

Try the compound CN(C)CCCCCCNC(=O)[C@H]1C[C@H]2C(=O)N[C@@H](CCCCN)C(=O)N2[C@H]1c1ccc(O)cc1
NO

----------
Assay: small-molecule microarray binders of probe aLefty2, primary screen, biochemical, biotinylated probe, 635/667 nm fluorescence (AID 1094);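 also: score merges spot fluorescence near 667 nm with spot signal-to-noise ratio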
Conditions: higher = more signal
Measured composite z-score of individual entries
When you answer, write just the number.

Suppose we examine the molecule CN1C(=O)C2C(C1=O)C1C=C(CCCO)C2C(c2cccs2)N1C (centres undefined) ; what composite z-score value has been reported?
-0.384

Field entry: CCOC(=O)C[C@H]1[C@H](OC(=O)c2ccc(-c3ccccc3)cc2)[C@@H](NC(=O)Cc2ccc(OC)cc2)c2cc(OCCCO)ccc2N1C(=O)c1ccc2ccccc2n1
-0.0561

Same for O=C/C=C/c1ccc(Cl)cc1
-0.134

Another: O=C1N(CCS(=O)(=O)c2ccccc2)Cc2ccccc2C[C@]12N=C(c1ccc(OCCCO)cc1)O[C@@H]2c1ccccc1
0.366

----------
Test: PSAC antagonists in infected red cells, primary screen, cell-based, P. falciparum Indochina, OD700, 1 h (AID 1154)
Details: P. falciparum Indochina infected RBC osmotic lysis, higher = more signal, called active from +8 up or from −8 down
Label rule, in plain words: z-score of 5 and up is Yes, under 5 is No.

Past entries and their recorded results:
• COCCOC(=O)N1C(=O)[C@@]2(c3cc(C#CCC(C(=O)OC)C(=O)OC)ccc31)[C@H](C(=O)N1CCCCCCC1)[C@H]1C(=O)O[C@H](c3ccccc3)[C@H](c3ccccc3)N1[C@@H]2c1ccc(OCCO)cc1 = Yes
• COc1ccc([Si](C)(C)[C@H]2[C@H](CC(=O)N(CCO)Cc3ccccc3)O[C@@]3(C(=O)N(Cc4cccc(N5CCC5=O)c4)c4ccccc43)[C@@H]2C)cc1 = Yes
• CCOC(=O)C[C@H]1[C@H](OC(=O)c2ccccc2-c2ccccc2)[C@@H](NC(=O)Cc2ccc(OC)cc2)c2cc(OCCCO)ccc2N1C(=O)c1ccccc1 = No
• CCCN1C(=O)[C@]2(COC(c3ccc(OCCCO)cc3)=N2)Cc2ccccc21 = Yes
• CS(=O)(=O)CCOC(=O)C1=CC(CCCO)=CC(c2cccs2)N(Cc2cc3c(cc2Br)OCO3)C=C1C(=O)OCCS(C)(=O)=O (stereo not drawn) = Yes

Check this compound for z-score at or above 5: CCOc1cc(C(O)C2C=CC3C(=O)N(c4ccccc4)C(=O)C3N2Nc2ccc([N+](=O)[O-])cc2)ccc1O (stereo not drawn)
Yes

COc1ccc(C#Cc2ccc3c(c2)[C@]2(C(=O)N3)[C@H](C(=O)NC[C@H](O)c3ccccc3)[C@H]3C(=O)O[C@H](c4ccccc4)[C@H](c4ccccc4)N3[C@@H]2c2ccc(OCCO)cc2)cc1 , same question.
No

Now consider CC(=O)C1=CCC(c2ccccc2)N(S(=O)(=O)c2ccc(C)cc2)C1 (stereo not drawn) and answer again.
No

What about this compound? COCCOC(=O)N1C(=O)[C@@]2(c3cc(C#CCNC(N)=O)ccc31)[C@H](c1ccc(O)cc1)N1[C@H](c3ccccc3)[C@H](c3ccccc3)OC(=O)[C@H]1[C@@H]2C(=O)Nc1nc2ccccc2s1
No

Then this compound: COC(=O)[C@@]1(Cc2ccc(F)cc2)[C@H]2c3cc(C(=O)N(C)C)n(CCc4ccccn4)c3C[C@H]2CN1C(=O)c1ccccc1
No

And for O=C1OCC=C[C@H]2OC34C=CCN(c5ccc(Cl)cc5)C(=O)[C@H]3N(CCCCCCO)C(=O)[C@@H]4[C@@H]12 (stereo partly drawn) ?
No

Then this compound: CCOC(=O)C1=CCC(c2ccc(C#N)cc2)N(S(=O)(=O)c2ccc(C)cc2)C1 (stereo not drawn)
Yes
